# protocolNotes: Selectivity ratio of IC50 for full length human MetAP1b to IC50 for Enterococcus faecalis MetAP1a
For each record, check the reported Ratio IC50: if it is below 0.1 write true, else write false.

- compound: "CCOc1nc(-c2ccccn2)nc(CN(CC)C(=O)OC)c1CC1CC1"
  labelValue: "false"
- compound: "Oc1nc(-c2ccccn2)nc2c1CCSC2"
  labelValue: "true"
- compound: "Cc1nc(-c2ccccn2)nc(N2CCOCC2)c1Cl"
  labelValue: "false"

Q. Is the reported Ratio IC50 for `Cc1nc(-c2ccccn2)nc(N(C)c2ccccc2)c1Cl` strictly below 0.1?
A. false

Q. Take the compound `CCCc1nc(-c2ccccn2)nc(O)c1CC1CC1` and say whether its Ratio IC50 is less than 0.1.
A. true

Q. Problem: For the compound `CCCc1nc(-c2ccccn2)nc(N(C)C(=O)OC)c1Cc1c(F)cccc1Cl` , is Ratio IC50 under 0.1?
A. false

Q. Ratio IC50 strictly < 0.1 for this compound? `Cc1nc(-c2ccccn2)nc(NCCNc2ccc(C(F)(F)F)cn2)c1Cl`
A. true

Q. Please indicate whether the reported Ratio IC50 of `CCCCCc1c(C)nc(-c2ccccn2)nc1O` is strictly below 0.1.
A. false

====

Could you please report measured Ratio IC50 for the items listed next?
# protocolNotes: Selectivity ratio of IC50 for full length human MetAP1b to IC50 for full length Mycobacterium tuberculosis MetAP1c
One number for each entry.

Consider the worked cases shown below.
- mol: "Cc1nc(-c2ccccn2)nc(N2CCN(C)CC2)c1Cl"
  Ratio IC50: 0.22
- mol: "Cc1cc(Oc2ccc(Cl)cc2)nc(-c2ccccn2)n1"
  Ratio IC50: 0.1
- mol: "Cc1nc(-c2ccccn2)nc(N2CCOCC2)c1Cl"
  Ratio IC50: 0.08

Quick request: Ratio IC50 for each listed item, please.
1. CCOC(=O)c1cnc(-c2ccccn2)nc1O
2. Cc1nc(-c2ccccn2)nc(N2CCN(CCO)CC2)c1Cl
3. Cc1nc(-c2ccccn2)nc(N[C@@H](Cc2ccccc2)C(N)=O)c1Cl
4. Cc1nc(-c2ccccn2)nc(NCCNc2ccc(C(F)(F)F)cn2)c1Cl

A.
0.4
0.14
0.26
0.08

====

# protocolNotes: Selectivity ratio of IC50 for full length human MetAP1b to IC50 for full length Mycobacterium tuberculosis MetAP1c
hey, just use Satisfied if measured Ratio IC50 is less than 0.4, otherwise Not satisfied

- mol: "Oc1cc(C(F)(F)F)nc(-c2ccccn2)n1"
  labelValue: "Satisfied"
- mol: "CC(C)S(=O)(=O)c1cnc(-c2ccccn2)nc1N"
  labelValue: "Satisfied"
- mol: "CCOc1nc(-c2ccccn2)nc(CN(CC)C(=O)OC)c1CC1CC1"
  labelValue: "Satisfied"
- mol: "Cc1nc(-c2ccccn2)nc(N(C)c2ccccc2)c1Cl"
  labelValue: "Not satisfied"

Q. Is it true that Ratio IC50 reported for `Cc1nc(-c2ccccn2)nc(NCCc2ccccc2)c1Cl` is less than 0.4?
A. Not satisfied

====

# protocolNotes: Selectivity ratio of IC50 for full length human MetAP1b to IC50 for Enterococcus faecalis MetAP1a
So I've got a bunch of molecules here, and I need their Ratio IC50 values.
Numbers only.

Examples from the recorded data:
- molecule: "CCOc1nc(-c2ccccn2)nc(O)c1CC1CC1"
  endpointValue: 0.1
- molecule: "CC(=O)Nc1cc(O)nc(-c2ccccn2)n1"
  endpointValue: 0.063
- molecule: "C=CC(C)c1c(O)nc(-c2ccccn2)nc1CCC (configuration not stated)"
  endpointValue: 0.04

Each of the following entries comes with a recorded value; kindly state Ratio IC50 for each.
1. Cc1cc(Oc2ccc(Cl)cc2)nc(-c2ccccn2)n1
2. Cc1nc(-c2ccccn2)nc(N2CCCN(Cc3ccc(Cl)cc3Cl)CC2)c1Cl

A.
1. 0.17
2. 0.08

Please look at the items below and tell me Ratio IC50 for each one, in order.
1. CSc1nc(-c2ccccn2)nc(N)c1C#N
2. Nc1cc(O)nc(-c2ccccn2)n1
3. Cc1cc(O)nc(-c2ccccn2)n1
4. CCOC(=O)c1cnc(-c2ccccn2)nc1O
5. Cc1cc(S)nc(-c2ccccn2)n1
6. Cc1nc(-c2ccccn2)nc(N2CCN(CCO)CC2)c1Cl
7. Cc1nc(-c2ccccn2)nc(O)c1CC1CC1
8. Oc1cc(C(F)(F)F)nc(-c2ccccn2)n1

A.
1. 0.29
2. 0.33
3. 0.23
4. 0.61
5. 0.07
6. 0.11
7. 0.11
8. 0.13

Please look at the items below and tell me Ratio IC50 for each one, in order.
1. Cc1nc(-c2ccccn2)nc(SCC(=O)N2CCOCC2)c1Cl
2. CC(C)S(=O)(=O)c1cnc(-c2ccccn2)nc1N
3. Cc1nc(-c2ccccn2)nc(N[C@@H](Cc2ccccc2)C(N)=O)c1Cl
4. Cc1nc(-c2ccccn2)nc(NCCc2ccccc2)c1Cl

A.
1: 0.11; 2: 0.196; 3: 0.31; 4: 0.6
